Ref: PubChem BioAssay (NCI)

System: SK-MEL-5 melanoma
experiment notes: NCI-60 one-dose screen, 48 h
particulars: 10 µM unless noted
This is part of a sample that, as a whole, favours compounds with a hit. Of some 83,000 tested, about 20% had one in any assay. Active and inactive are the calls of the source. The calls were made as follows: active = growth percent below 10; inactive = the rest.
Your answer must be one of the following: True for active, False for inactive

Here's what some known entries look like.
{"compound": "CC1=NC2=CC=CC3=NC(C(Cl)(Cl)Cl)=NC(=N1)N23", "group": "False"}
{"compound": "O=c1cc/c(=N\\Nc2ccccc2)c(=O)/c1=N/Nc1ccccc1", "group": "False"}
{"compound": "COc1ccc(C(=O)c2cc(OC)c3c(c2)OCO3)cc1O", "group": "True"}
{"compound": "CC[N+](CC)=c1cc2oc3cc(N(C)C)ccc3nc-2cc1C", "group": "True"}
{"compound": "O=c1c2sc3ncccc3c2nnn1-c1ccccc1", "group": "False"}
{"compound": "COc1cccc(-c2cc3c(O)cc(C#N)cc3[nH]2)c1", "group": "False"}
{"compound": "COc1ccc(N2CCN(Cc3cc(C(=O)/C=C/c4c[nH]c5ccccc45)ccc3O)CC2)cc1", "group": "False"}
{"compound": "Nc1cccc(Cl)c1N", "group": "False"}
{"compound": "Cc1ccc(S(=O)(=O)NC(=O)n2cc(-c3ccncc3)c(-c3ccc(Cl)c(O)c3)n2)cc1", "group": "False"}
{"compound": "O=C(O)c1cn(C2CC2)c2cc(N3CCN(C(=O)/C=C/c4ccc(Cl)cc4)CC3)c(F)cc2c1=O", "group": "False"}

Now consider a different compound.
Request: Test call, this compound: N=c1ccc2nc3ccc(N)cc3sc-2c1
Result: True
